Every entry's value here was drawn from patent US9796711B2.

# system.name: ΔF508-CFTR (Homo sapiens, UniProt P13569, DEL508-508)
# Construct: host or cells: CFBE41o-, doxycycline-inducible
# Sequence (P13569 with tags, fused parts or gaps DEL508-508): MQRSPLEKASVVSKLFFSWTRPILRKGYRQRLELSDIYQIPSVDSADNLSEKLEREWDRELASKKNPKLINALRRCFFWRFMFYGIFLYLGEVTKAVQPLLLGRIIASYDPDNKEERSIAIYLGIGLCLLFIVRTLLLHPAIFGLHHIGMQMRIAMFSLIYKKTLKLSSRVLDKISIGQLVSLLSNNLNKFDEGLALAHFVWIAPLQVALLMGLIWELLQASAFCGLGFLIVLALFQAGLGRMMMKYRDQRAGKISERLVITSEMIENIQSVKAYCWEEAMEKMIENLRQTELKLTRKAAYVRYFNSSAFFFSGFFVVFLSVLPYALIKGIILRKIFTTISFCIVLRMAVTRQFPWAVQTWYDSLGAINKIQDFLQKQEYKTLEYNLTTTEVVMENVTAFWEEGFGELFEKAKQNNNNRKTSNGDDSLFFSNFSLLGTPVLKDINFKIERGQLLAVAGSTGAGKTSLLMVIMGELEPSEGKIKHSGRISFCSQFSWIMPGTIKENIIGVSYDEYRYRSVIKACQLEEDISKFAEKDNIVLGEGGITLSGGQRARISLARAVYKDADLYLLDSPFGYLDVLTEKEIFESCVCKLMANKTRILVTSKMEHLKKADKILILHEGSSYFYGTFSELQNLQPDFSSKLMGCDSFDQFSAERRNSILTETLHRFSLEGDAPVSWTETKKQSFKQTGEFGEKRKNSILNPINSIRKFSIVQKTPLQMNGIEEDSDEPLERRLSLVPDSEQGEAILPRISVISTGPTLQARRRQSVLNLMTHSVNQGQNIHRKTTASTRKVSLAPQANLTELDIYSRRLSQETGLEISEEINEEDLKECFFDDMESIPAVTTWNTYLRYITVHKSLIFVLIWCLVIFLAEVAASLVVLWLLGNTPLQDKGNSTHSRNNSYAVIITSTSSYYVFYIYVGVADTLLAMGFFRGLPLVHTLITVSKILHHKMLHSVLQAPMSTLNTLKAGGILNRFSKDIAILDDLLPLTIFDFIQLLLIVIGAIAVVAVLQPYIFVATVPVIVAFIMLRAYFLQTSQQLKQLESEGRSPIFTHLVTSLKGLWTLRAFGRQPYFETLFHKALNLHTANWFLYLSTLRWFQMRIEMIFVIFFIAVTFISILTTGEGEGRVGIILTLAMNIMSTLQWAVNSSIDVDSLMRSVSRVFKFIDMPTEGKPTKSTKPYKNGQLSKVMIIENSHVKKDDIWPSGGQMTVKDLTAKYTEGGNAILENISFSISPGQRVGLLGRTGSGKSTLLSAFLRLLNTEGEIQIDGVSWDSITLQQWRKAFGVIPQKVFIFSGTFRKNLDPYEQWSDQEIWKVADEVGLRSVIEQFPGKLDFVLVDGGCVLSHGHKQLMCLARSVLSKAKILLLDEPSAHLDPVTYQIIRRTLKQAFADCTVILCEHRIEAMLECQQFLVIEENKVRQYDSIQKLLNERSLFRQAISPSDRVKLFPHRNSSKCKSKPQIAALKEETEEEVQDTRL
# assay.text: CFTR cell surface levels using HRP-tagged ΔF508-CFTR expressing CFBE cells, in the presence of a co-corrector
# Format: cell-based
# measurement.parameters: HRP-tagged ΔF508-CFTR expressing CFBE cells, in the presence of 3 μM co-corrector; read-out: EC50
measurement.kind: pEC50
Keep it numeric: pEC50 is minus log10 of the concentration in mol/L.

The compound CN(C)[C@H]1CCN(c2cc(C(=O)O)nc3c2c(C2CCC2)nn3-c2ccccc2)C1 [compound 568] showed pEC50 equal to 5.60

Entry Cc1nn(-c2ccccc2)c2nc(C(=O)O)cc(-c3ccc(N4CCN(CC#N)CC4)cc3)c12 [compound 98] — recorded pEC50 = 6.08

compound Cc1nn(-c2ccccc2)c2nc(C(=O)O)cc(OCCN3CCCC3)c12 [compound 342] , pEC50 observed: 5.47

Field pEC50 (entry CC(C)c1nn(C2CCCCC2)c2nc(C(=O)O)cc(-c3ccc(N(C)C4CCOCC4)nc3)c12 [compound 169] ) reads 6.52

Looking up CN1C(=O)CO[C@H]2CN(c3cc(C(=O)O)nc4c3c(C3CCC3)nn4-c3ccccc3)C[C@@H]21 [compound 516] , I see its pEC50 listed as 6.14

pEC50 recorded for this compound, CC(C)c1nn(-c2cc(F)cc(F)c2)c2nc(C(=O)O)cc(-c3cnc(N(C)C4CCOCC4)nc3)c12 [compound 317] , is 6.01

Per the records, this compound ( Cc1cccc(-n2nc(C(C)C)c3c(N4CCCCC4)cc(C(=O)O)nc32)c1 [compound 162] ) has pEC50 equal to 6.09

Recorded result, COC[C@H]1CCN(CC2CCN(c3cc(C(=O)O)nc4c3c(C3CCC3)nn4-c3ccccc3)CC2)C1 [compound 804] , pEC50: 6.64

Lookup result for CN(C1CCOCC1)C1CCN(c2cc(C(=O)O)nc3c2c(C2CCC2)nn3-c2ccc(F)cc2)CC1 [compound 854] ; measured pEC50: 5.48

// field: pEC50; key: CN(CCCN(C)C1CCCCC1)c1cc(C(=O)O)nc2c1c(C1CCC1)nn2-c1ccccc1 [compound 690] ; value = 5.56

Looking up Cc1nn(-c2ccccc2)c2nc(C(=O)O)cc(-c3ccc(N4CC5(COC5)C4)cc3)c12 [compound 126] , I see its pEC50 listed as 6.08

// COCCOCCOc1cc(C(=O)O)nc2c1c(C1CCC1)nn2-c1ccccc1 [compound 586] : pEC50 value = 5.70

Per the records, this compound ( CC(C)c1nn(-c2cccc(N(C)C)c2)c2nc(C(=O)O)cc(N3CCCCC3)c12 [compound 328] ) has pEC50 equal to 6.33

Per the record, Cc1nn(-c2ccccc2)c2nc(C(=O)O)cc(-c3ccc(N4C[C@@H](O)[C@H](O)C4)cc3)c12 [compound 116] has pEC50 of 5.48

Please fill in: pEC50 reported for COCC(C)N1CCN(c2cc(C(=O)O)nc3c2c(C(C)C)nn3-c2ccc(F)cc2)CC1 (stereo not shown) [compound 793] = 5.78

Item: CC(C)c1nn(-c2cccc(F)c2)c2nc(C(=O)O)cc(-c3ccc(N(C)C4CCOCC4)nc3)c12 [compound 283] | pEC50: 6.44

The compound O=C(O)c1cc(-c2ccc(N3CCOCC3)cc2)c2c(C3CCC3)nn(-c3cc(F)cc(F)c3)c2n1 [compound 353] showed pEC50 equal to 6.34

Record O=C(O)c1cc(N2CCC(O)(CCO)CC2)c2c(C3CCC3)nn(-c3ccccc3)c2n1 [compound 546] . Reported pEC50: 5.48

Item: COC1CCN(c2cc(C(=O)O)nc3c2c(C(C)C)nn3-c2cccc(C)c2)CC1 [compound 192] | pEC50: 6.56

get_value(item= CCN(CC)C1CCN(c2cc(C(=O)O)nc3c2c(C(C)C)nn3-c2ccc(F)cc2)CC1 [compound 787] , readout=pEC50) returns 5.89

Record summary for CC(C)N1CCCN(c2cc(C(=O)O)nc3c2c(C2CCC2)nn3-c2ccccc2)CC1 [compound 691] : reported pEC50 = 5.30

Given item O=C(O)c1cc(N2CC(N3CCOCC3)C2)c2c(C3CCC3)nn(-c3ccccc3)c2n1 [compound 709] , the value recorded as its pEC50 is 5.78

Looking up CC(C)c1nn(C2CCCCC2)c2nc(C(=O)O)cc(-c3ccc(N(C)C)nc3)c12 [compound 93] , I found its pEC50 recorded as 6.31

// pEC50 lookup, compound = CC(C)c1nn(C2CCCCC2)c2nc(C(=O)O)cc(N3CCC(CO)CC3)c12 [compound 266] , result: 5.98

response.value for CC(O)CN1CCC(N2CCN(c3cc(C(=O)O)nc4c3c(C(C)C)nn4-c3ccc(F)cc3)CC2)CC1 (stereo not shown) [compound 742] (field: pEC50) = 5.30

The recorded pEC50 for entry CC(C)(O)C1CCN(c2cc(C(=O)O)nc3c2c(C2CCC2)nn3-c2ccccc2)CC1 [compound 659] equals 7.16

// field: pEC50; key: CC(C)c1nn(-c2ccc(F)cc2)c2nc(C(=O)O)cc(N3CCN(C(=O)N(C)C)CC3)c12 [compound 774] ; value = 5.78

Recorded result, CC(=O)NC1CCN(c2ccc(-c3cc(C(=O)O)nc4c3c(C)nn4-c3ccccc3)cc2)C1 (stereo not shown) [compound 156] , pEC50: 5.50

Quick note, pEC50 for O=C(O)c1cc(N2CCOC(CO)C2)c2c(C3CCC3)nn(-c3ccccc3)c2n1 (stereo not shown) [compound 531] landed at 5.84

What the record says about CC(C)c1nn(-c2ccc(F)cc2)c2nc(C(=O)O)cc(N3CCC(C(C)N4CCCC4)CC3)c12 (stereo not shown) [compound 789] : pEC50 is 6.04
